These data points were gathered from the supplement of paper PMC6897291.

system: RIVA; assay: growth inhibition by drug alone (1 - RLU/untreated control) (fraction); higher = stronger inhibition; settings: 100 nM; time (day): 5; 177Lu-lilotomab satetraxetan 0 ug/ml
Counter-ions that a name gives are not always drawn.
Measured property: growth inhibition by drug alone
Please give only the number in your answer, with no unit.

Inquiry: Item CNC(=O)c1cc(Oc2ccc(NC(=O)Nc3cc(C(C)(C)C)nn3-c3ccc4ncccc4c3)c(F)c2)ccn1 [DCC-2036 (Rebastinib)] : provide growth inhibition by drug alone
Reply text: -0.231

Inquiry: Find the measured growth inhibition by drug alone of CC[C@H](Nc1ncnc2[nH]cnc12)c1nc2cccc(F)c2c(=O)n1-c1ccccc1 and report it.
Reply text: 0.175

Inquiry: Please give measured growth inhibition by drug alone of the following entry: O=C1c2c(O)ccc(O)c2C(=O)c2c(NCCNCCO)ccc(NCCNCCO)c21 [Mitoxantrone Hydrochloride]
Reply text: 0.873

###

Record form. Attribute: growth inhibition by drug alone. Fill in for each entry.
test system: U-2932; test: growth inhibition by drug alone (1 - RLU/untreated control) (fraction); higher = stronger inhibition; conditions: 1000 nM; time (day): 5; 177Lu-lilotomab satetraxetan 0 ug/ml
Structures can show the parent of a compound that is named as a salt.
Could you keep your reply to the number by itself?

Inquiry: Could you please provide reported growth inhibition by drug alone for Nc1nccc(-c2ccc3noc(-c4ccc(Cl)cc4)c3c2)n1 [PIM-1 Inhibitor 2] ? Thanks!
Reply text: 0.0739

Inquiry: Dear colleague, please send me the reported growth inhibition by drug alone for C[C@H](NC(=O)Cc1cc(F)cc(F)c1)C(=O)N[C@H](C(=O)OC(C)(C)C)c1ccccc1 when you can.
Reply text: -0.0673

Inquiry: Check the records and state growth inhibition by drug alone for Nc1nc2[nH]cc(CCc3ccc(C(=O)N[C@@H](CCC(=O)O)C(=O)O)cc3)c2c(=O)[nH]1 [Pemetrexed]
Reply text: 0.965

Inquiry: Complete the entry with growth inhibition by drug alone for O=C(O)CCc1ccc(NCc2cccc(Oc3ccccc3)c2)cc1
Reply text: -0.13

Inquiry: Check the records and state growth inhibition by drug alone for O=C(/C=C/c1cccnc1)NCCCCC1CCN(C(=O)c2ccccc2)CC1
Reply text: 0.984

Inquiry: Look up growth inhibition by drug alone of Cn1nnc2c(C(N)=O)ncn2c1=O [Temozolomide] and report it.
Reply text: -0.0162

Inquiry: Given COc1ccc(/C=C\c2cc(OC)c(OC)c(OC)c2)cc1O [Combretastatin A4] , respond with its growth inhibition by drug alone.
Reply text: 0.981

Inquiry: Indicate the recorded growth inhibition by drug alone value for this compound: Nc1cc(C(F)(F)F)c(-c2cc(N3CCOCC3)nc(N3CCOCC3)n2)cn1
Reply text: 0.563

Inquiry: Provide measured growth inhibition by drug alone value, entry: COc1nc(-c2ccc3c(c2)OCO3)n(-c2ccc(NC(=O)CSc3ccccc3)cc2)n1 [SecinH3]
Reply text: -0.134

Inquiry: Output measured growth inhibition by drug alone for this item: COc1c(C)c2c(c(O)c1C/C=C(\C)CCC(=O)OCCN1CCOCC1)C(=O)OC2 [Mycophenolate mofetil (CellCept)]
Reply text: 0.743

Inquiry: Look up and state reported growth inhibition by drug alone for Cc1nc(N)sc1-c1ccnc(Nc2ccc(N3CCOCC3)cc2)n1
Reply text: 0.0172

Inquiry: Answer with reported growth inhibition by drug alone of O=NN(CCCl)C(=O)NC1CCCCC1 [Lomustine (CeeNU)]
Reply text: -0.0378

Inquiry: Answer with the recorded growth inhibition by drug alone for the compound listed here: COc1ccc(-c2ccc3c(N4CCOC[C@@H]4C)nc(N4CCOC[C@@H]4C)nc3n2)cc1CO
Reply text: 0.897

Inquiry: Complete the entry with growth inhibition by drug alone for CCc1cncnc1N1CCN(Cc2nc3ccc(C(F)(F)F)cc3[nH]2)CC1
Reply text: 0.0246

Inquiry: Please report the measured growth inhibition by drug alone for Oc1nc(-c2ccc(C(F)(F)F)cc2)nc2c1CSCC2
Reply text: 0.0386

Inquiry: Answer with the recorded growth inhibition by drug alone for the compound listed here: Cc1nn(-c2ccccc2)c(C)c1C=NN1CCN(Cc2ccccc2)CC1
Reply text: -0.0956

Inquiry: Look up growth inhibition by drug alone of Cc1cnc(Nc2ccc(OCCN3CCCC3)cc2)nc1Nc1cccc(S(=O)(=O)NC(C)(C)C)c1 and report it.
Reply text: -0.00563

Inquiry: Give the measured growth inhibition by drug alone for Cc1ccc(-c2csc3ncnc(SCCC(=O)O)c23)cc1
Reply text: -0.0409

Inquiry: Fill in growth inhibition by drug alone for record Cc1cccc(-c2nn3c(c2-c2ccnc4ccc(C(N)=O)cc24)CCC3)n1
Reply text: -0.0422

Inquiry: State, in one line, measured growth inhibition by drug alone of C[C@]12CCC(=O)C=C1CC[C@@H]1[C@@H]2[C@@H](O)C[C@@]2(C)[C@H]1CC[C@]2(O)C(=O)CO [Hydrocortisone (Cortisol)]
Reply text: 0.221

Inquiry: Indicate the recorded growth inhibition by drug alone value for this compound: COc1nc(C)cnc1NS(=O)(=O)c1cccnc1-c1ccc(-c2nnco2)cc1 [Zibotentan (ZD4054)]
Reply text: -0.0784

Inquiry: Give growth inhibition by drug alone for O=C(c1cc(Cc2n[nH]c(=O)c3ccccc23)ccc1F)N1CCN(C(=O)C2CC2)CC1 [Olaparib (AZD2281)]
Reply text: 0.0248

Inquiry: Find the measured growth inhibition by drug alone of O=C1c2ccccc2-c2nc3nonc3nc21 and report it.
Reply text: 0.193

Inquiry: State, in one line, measured growth inhibition by drug alone of COc1ccc(CNC(=O)Nc2ncc([N+](=O)[O-])s2)cc1
Reply text: 0.0965

Inquiry: Indicate the recorded growth inhibition by drug alone value for this compound: Cc1nnc(C(C)C)n1C1C[C@H]2CC[C@@H](C1)N2CC[C@H](NC(=O)C1CCC(F)(F)CC1)c1ccccc1 (stereo in doubt) [Maraviroc]
Reply text: -0.0104

Inquiry: Name the recorded growth inhibition by drug alone of the compound listed here: CCOC(=O)C1=C[C@]2(CC)CCCN3CCc4c(n1c1ccccc41)[C@@H]32 [Vinpocetine (Cavinton)]
Reply text: 0.0149

Inquiry: Quick one: give measured growth inhibition by drug alone for CC(C)C[C@H](NC(=O)CNC(=O)c1cc(Cl)ccc1Cl)B1OC(=O)C(CC(=O)O)(CC(=O)O)O1
Reply text: 0.984

Inquiry: Give recorded growth inhibition by drug alone. CC[C@@]1(O)C(=O)OCc2c1cc1n(c2=O)Cc2cc3c(CN(C)C)c(O)ccc3nc2-1 [Topotecan HCl]
Reply text: 0.977

Inquiry: Return reported growth inhibition by drug alone. Input compound: O=c1cc(-c2cccc3c2Sc2ccccc2S3)oc(N2CCOCC2)c1
Reply text: -0.0721

Inquiry: Identify measured growth inhibition by drug alone corresponding to CNCc1ccc(-c2[nH]c3cc(F)cc4c3c2CCNC4=O)cc1
Reply text: 0.0516

Inquiry: Supply growth inhibition by drug alone value. Item: CN(C)Cc1ccc(-c2nc3cccc4c3n2CCNC4=O)cc1
Reply text: -0.00883

Inquiry: Please look at this compound and report its growth inhibition by drug alone: Fc1cc(-c2cccc3ncc(-c4cnn(C5CCNCC5)c4)nc23)cc(F)c1CN1CCOCC1
Reply text: 0.0444

Inquiry: Using the record for CC[C@]1(O)C[C@H]2CN(CCc3c([nH]c4ccccc34)[C@@](C(=O)OC)(c3cc4c(cc3OC)N(C=O)[C@H]3[C@@](O)(C(=O)OC)[C@H](OC(C)=O)[C@]5(CC)C=CCN6CC[C@]43[C@@H]65)C2)C1 [Vincristine] , state its measured growth inhibition by drug alone.
Reply text: 0.979

###

system: U-2932; assay: growth inhibition by drug plus 177Lu-lilotomab satetraxetan (1 - RLU/untreated control) (fraction); higher = stronger inhibition; conditions: 10 nM; time (day): 3; 177Lu-lilotomab satetraxetan 1 ug/ml
Structures can show the parent of a compound that is named as a salt.
Param threshold (0.008) applies to growth inhibition by drug plus 177Lu-lilotomab satetraxetan; output 1 (yes) when value >= threshold, 0 (no) when value < threshold.

Inquiry: Assess whether reported growth inhibition by drug plus 177Lu-lilotomab satetraxetan for NC(=O)c1ccc(I)c([N+](=O)[O-])c1 sits at 0.008 or higher.
Reply text: 0 (no)

Inquiry: Please tell me: is the compound Cc1cnc(-c2cnc(NCCNc3ccc(C#N)cn3)nc2-c2ccc(Cl)cc2Cl)[nH]1 at or over 0.008 in terms of growth inhibition by drug plus 177Lu-lilotomab satetraxetan?
Reply text: 1 (yes)

Inquiry: Could you tell me if the measured growth inhibition by drug plus 177Lu-lilotomab satetraxetan of Nc1cc(C(F)(F)F)c(-c2cc(N3CCOCC3)nc(N3CCOCC3)n2)cn1 reaches 0.008 or more?
Reply text: 0 (no)

Inquiry: Please check the record CN(C)CCOc1ccc(/C(=C(/CCCl)c2ccccc2)c2ccccc2)cc1 [Toremifene Citrate (Fareston, Acapodene)] and state if its growth inhibition by drug plus 177Lu-lilotomab satetraxetan is at or above 0.008.
Reply text: 1 (yes)

Inquiry: Item CCCCCCCCc1ccc(CCC(N)(CO)CO)cc1 with growth inhibition by drug plus 177Lu-lilotomab satetraxetan of 0.008 or above?
Reply text: 1 (yes)

Inquiry: Please check the record Nc1ccccc1NC(=O)c1ccc(CNc2nccc(-c3cccnc3)n2)cc1 and state if its growth inhibition by drug plus 177Lu-lilotomab satetraxetan is at or above 0.008.
Reply text: 0 (no)

Inquiry: Does the reported growth inhibition by drug plus 177Lu-lilotomab satetraxetan for c1ccc2c(CCNc3ccc(Nc4ccncc4)cc3)c[nH]c2c1 fall at or above the 0.008 mark?
Reply text: 1 (yes)

Inquiry: Exam item: decide whether the reported growth inhibition by drug plus 177Lu-lilotomab satetraxetan for CNC(=O)c1cc(Oc2ccc(NC(=O)Nc3cc(C(C)(C)C)nn3-c3ccc4ncccc4c3)c(F)c2)ccn1 [DCC-2036 (Rebastinib)] is at least 0.008.
Reply text: 1 (yes)

Inquiry: Hello, I need to know if C=CCn1c(=O)c2cnc(Nc3ccc(N4CCN(C)CC4)cc3)nc2n1-c1cccc(C(C)(C)O)n1 has measured growth inhibition by drug plus 177Lu-lilotomab satetraxetan not below 0.008. Thanks!
Reply text: 0 (no)

Inquiry: Can Cn1cnc2c(F)c(Nc3ccc(Br)cc3Cl)c(C(=O)NOCCO)cc21 [AZD6244 (Selumetinib)] be said to have growth inhibition by drug plus 177Lu-lilotomab satetraxetan at or above 0.008?
Reply text: 0 (no)

Inquiry: Would you say O=C(O)c1ccc(-c2c[nH]c3ncc(-c4ccccc4)cc23)cc1C1CCCC1 shows growth inhibition by drug plus 177Lu-lilotomab satetraxetan at minimum 0.008?
Reply text: 0 (no)

Inquiry: Is growth inhibition by drug plus 177Lu-lilotomab satetraxetan for CS(=O)(=O)c1ccc(C(=O)Nc2ccc(Cl)c(-c3ccccn3)c2)c(Cl)c1 at or above 0.008?
Reply text: 1 (yes)
